Record form. Attribute: Killing percentage, ADCC (PBMC, HEK293-CLDN18.2 cells), 40 µg/ml. Fill in for each entry.
- SUBJECT OF TEST: Claudin 18.2 (CLDN18.2), expressed on CHOS-CLDN 18.2 / HEK293-CLDN 18.2 / HCC827-CLDN 18.2 cells (human, UniProt P56856-2 1-261)
- METHOD DESCRIPTION: cell-based or functional assay
Answers are plain numbers, in %.

- BINDER: "QP024025 (antibody, human IgG1, V domains shown, also called IMAB362; 175D10(IMAB362)) VH: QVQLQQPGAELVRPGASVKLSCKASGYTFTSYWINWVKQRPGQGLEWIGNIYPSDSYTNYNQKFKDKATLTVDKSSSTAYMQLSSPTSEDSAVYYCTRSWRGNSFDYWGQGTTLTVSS VL: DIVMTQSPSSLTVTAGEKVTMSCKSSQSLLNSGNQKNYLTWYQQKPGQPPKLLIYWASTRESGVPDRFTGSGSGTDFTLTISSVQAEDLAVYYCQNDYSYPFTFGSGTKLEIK"
  UNIT TEXT: "%"
  READOUT VALUE: 21.6
- BINDER: "QP14451440 (antibody, human IgG1, kappa, V domains shown, Humanized from QP192193; also called QP14401445) VH: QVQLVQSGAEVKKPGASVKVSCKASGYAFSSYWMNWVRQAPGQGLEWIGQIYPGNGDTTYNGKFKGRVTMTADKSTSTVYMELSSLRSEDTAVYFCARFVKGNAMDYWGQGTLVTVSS VL: DIVMTQSPDSLAVSLGERATISCKSSQSLLNSGNQKNYLTWYQQKPGQPPKLLIYWASTRESGVPDRFSGSGSGTDFTLTISSLQAEDVAVYYCQNAYSYPFTFGQGTKLEIKR"
  UNIT TEXT: "%"
  READOUT VALUE: 47.8
- BINDER: "QP14371433 (antibody, human IgG1, kappa, V domains shown, Humanized from QP190191; also called QP14331437) VH: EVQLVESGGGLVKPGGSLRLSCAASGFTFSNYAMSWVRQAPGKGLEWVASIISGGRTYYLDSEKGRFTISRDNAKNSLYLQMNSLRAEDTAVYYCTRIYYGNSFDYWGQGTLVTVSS VL: DIVMTQSPDSLAVSLGERATINCKSSQSLLNSGNQKNYLTWYQQKPGQPPKLLIYWASTRESGVPDRFSGSGSGTDFTLTISSLQAEDVAVYYCQNDYSYPFTFGQGTKLEIKR"
  UNIT TEXT: "%"
  READOUT VALUE: 52.3

Let us move to another entry and its Killing percentage, ADCC (PBMC, HEK293-CLDN18.2 cells), 40 µg/ml.
Exercise: Which Killing percentage, ADCC (PBMC, HEK293-CLDN18.2 cells), 40 µg/ml is listed for QP14631461 (antibody, human IgG1, kappa, V domains shown, also called QP14611463) VH: QVQLVQSGAEVKKPGASVKVSCKASGYTFTSYIMHWVRQAPGQGLEWMGYINPYNDGTKYNEKFKGRVTMTRDTSTSTVYMELSSLRSEDTAVYYCARLGFTTRNAMDYWGQGTLVTVSS VL: DIVMTQSPDSLAVSLGERATINCKSSQSLLNSGNQKNYLAWYQQKPGQPPKLLIYGASTRESGVPDRFTGSGSGTDFTLTISSLQAEDVAVYYCQNDHSYPFTFGQGTKLEIKR ?
Key: 28.6

These measurements were taken from patent US20230183352A1.
